From: FireProtDB (doi:10.1074/jbc.m110728200)

Task for the reader: assign each of the following variants its reported unfolding enthalpy (van 't Hoff).
B1: Lysozyme C, P61626 (parent)
chain: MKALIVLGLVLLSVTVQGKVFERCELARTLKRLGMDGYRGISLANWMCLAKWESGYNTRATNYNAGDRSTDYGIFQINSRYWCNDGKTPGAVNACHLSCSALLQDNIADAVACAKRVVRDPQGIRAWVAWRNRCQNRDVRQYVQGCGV

- Variants of: B1
- conditionSet: Homo sapiens; pH 2.83; Thermal; DSC; Gly-HCl 0.05 M; structure 1LZ1; whole UniProt chain shown
State just the number; it will be interpreted in kcal/mol.

Lab book: unfolding enthalpy (van 't Hoff) of V20S noted as 107

unfolding enthalpy (van 't Hoff) recorded for this variant, V128N , is 115

The measured unfolding enthalpy (van 't Hoff) associated with V92S reads 115

The measured unfolding enthalpy (van 't Hoff) associated with V20Y reads 110

// V92D : unfolding enthalpy (van 't Hoff) value = 115
